systemTested: T1, Nat1 (LTIITLE) (also: TFA salt)
T1 peptide: LTIITLE
measurementProtocol: cell-based or functional assay
Non-standard residues stand in square brackets, D forms with d. No end group written: not given here.
Recorded IC50, Thiofiavin T aggregation assay for the following binders
Please reply with the bare figure in nM and do not write the unit itself.

Consider the reported IC50, Thiofiavin T aggregation assay for these binders:
> print(dat)
                                   binder  measured
1                                 AYYYRHR      2120
2                                 WTIMLWH       525
3  [dF][dW][dR][dW][dH][dA][dR] [fwrwhar]       245
4                                 LFIFYHR       476
5                                 LWIKYHR        76
6                                 LLIAYHR       466

In the following, a different binder is considered.
*Q* Look at this binder and give its reported IC50, Thiofiavin T aggregation assay. [dQ][dF][dR][dM][dH][dH][dR] [qfrmhhr]
*A* 181

Data origin, for the record: patent US20200062804A1
